- target-desc: Heterotetrameric CNGA2:A4:B1b channels (Rattus norvegicus, UniProt A0A8I5ZN27+Q00195+Q64359)
- Sequence (Q00195 whole entry): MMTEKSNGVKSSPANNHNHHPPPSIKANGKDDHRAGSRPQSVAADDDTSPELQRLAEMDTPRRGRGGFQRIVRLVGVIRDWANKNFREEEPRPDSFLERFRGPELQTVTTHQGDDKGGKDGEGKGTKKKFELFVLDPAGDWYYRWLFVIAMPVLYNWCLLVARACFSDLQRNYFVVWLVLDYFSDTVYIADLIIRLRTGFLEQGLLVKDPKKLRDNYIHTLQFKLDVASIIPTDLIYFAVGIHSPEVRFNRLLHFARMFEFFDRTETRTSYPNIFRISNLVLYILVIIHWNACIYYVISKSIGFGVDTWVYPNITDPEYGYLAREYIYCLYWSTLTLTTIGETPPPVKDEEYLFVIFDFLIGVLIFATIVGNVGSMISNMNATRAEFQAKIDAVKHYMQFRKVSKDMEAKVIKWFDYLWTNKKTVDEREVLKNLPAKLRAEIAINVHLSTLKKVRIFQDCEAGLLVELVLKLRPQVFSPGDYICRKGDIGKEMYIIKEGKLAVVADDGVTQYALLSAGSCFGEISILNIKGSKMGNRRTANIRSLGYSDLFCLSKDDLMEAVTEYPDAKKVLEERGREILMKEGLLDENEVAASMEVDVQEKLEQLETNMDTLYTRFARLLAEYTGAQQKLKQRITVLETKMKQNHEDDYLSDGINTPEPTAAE
- Sequence (Q64359 whole entry): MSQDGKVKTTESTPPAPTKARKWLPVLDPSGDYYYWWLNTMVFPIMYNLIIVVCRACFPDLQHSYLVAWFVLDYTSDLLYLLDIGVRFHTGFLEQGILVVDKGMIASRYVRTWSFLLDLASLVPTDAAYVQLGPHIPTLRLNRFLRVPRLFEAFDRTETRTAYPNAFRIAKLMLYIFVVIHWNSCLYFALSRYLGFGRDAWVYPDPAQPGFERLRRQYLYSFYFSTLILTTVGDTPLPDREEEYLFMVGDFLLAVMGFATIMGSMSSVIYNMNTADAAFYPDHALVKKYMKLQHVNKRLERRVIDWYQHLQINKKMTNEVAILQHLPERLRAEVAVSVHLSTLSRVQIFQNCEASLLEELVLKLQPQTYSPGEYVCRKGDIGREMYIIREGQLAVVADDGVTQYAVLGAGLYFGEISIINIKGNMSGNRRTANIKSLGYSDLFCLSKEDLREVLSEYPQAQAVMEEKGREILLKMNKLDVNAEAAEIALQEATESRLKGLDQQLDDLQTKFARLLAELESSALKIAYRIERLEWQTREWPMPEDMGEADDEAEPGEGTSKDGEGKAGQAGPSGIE
- Sequence (A0A8I5ZN27 1-858 isoform A0A8I5ZN27-2): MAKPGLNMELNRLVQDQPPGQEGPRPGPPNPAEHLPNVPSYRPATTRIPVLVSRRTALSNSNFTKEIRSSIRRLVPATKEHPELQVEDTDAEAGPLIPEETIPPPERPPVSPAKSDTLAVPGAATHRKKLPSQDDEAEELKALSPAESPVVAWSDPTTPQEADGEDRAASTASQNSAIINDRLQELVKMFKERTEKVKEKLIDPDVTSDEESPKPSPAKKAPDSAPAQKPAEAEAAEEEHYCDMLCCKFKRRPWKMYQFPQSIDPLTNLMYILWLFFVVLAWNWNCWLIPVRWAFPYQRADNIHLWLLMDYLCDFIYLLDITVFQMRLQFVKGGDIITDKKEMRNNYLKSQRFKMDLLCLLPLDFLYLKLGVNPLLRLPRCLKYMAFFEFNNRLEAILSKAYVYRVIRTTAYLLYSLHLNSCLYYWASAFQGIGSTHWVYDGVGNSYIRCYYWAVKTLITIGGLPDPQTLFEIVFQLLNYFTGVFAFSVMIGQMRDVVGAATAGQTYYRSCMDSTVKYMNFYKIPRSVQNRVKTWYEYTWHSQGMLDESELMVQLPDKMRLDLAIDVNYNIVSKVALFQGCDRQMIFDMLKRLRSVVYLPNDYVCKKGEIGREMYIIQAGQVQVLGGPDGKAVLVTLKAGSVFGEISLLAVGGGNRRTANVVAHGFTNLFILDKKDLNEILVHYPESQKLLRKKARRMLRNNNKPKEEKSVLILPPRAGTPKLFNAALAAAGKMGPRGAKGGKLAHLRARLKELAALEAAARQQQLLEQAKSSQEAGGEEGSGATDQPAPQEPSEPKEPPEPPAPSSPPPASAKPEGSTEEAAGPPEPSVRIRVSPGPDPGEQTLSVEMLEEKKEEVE
- measurement-protocol: Patch-clamp activation of heterotetrameric olfactory CNGA2:A4:B1b channels, inside-out patches of Xenopus oocytes
- measurement-setup: inside-out patches, +10 mV; concentration of half maximum activation
observable: pEC50
To interpret pEC50, take it as minus log10 of a concentration measured in moles per litre.

Q: Hello, please tell me recorded pEC50 for this one: NCCCCCc1ccc(Sc2nc3c(N)ncnc3n2[C@@H]2O[C@@H]3COP(=O)(O)O[C@H]3[C@H]2O)cc1
Result: 6.12

Q: Please report pEC50 for the following compound: NCCCCCc1ccc(-c2nc3c(N)ncnc3n2[C@@H]2O[C@@H]3COP(=O)(O)O[C@H]3[C@H]2O)cc1
Result: 4.97

Q: Read off the recorded pEC50 for CC1(C)C2=C3C=C4C5=[N+](CCC4OC3CCN2c2ccc(CC(=O)NCCCCCc3ccc(Sc4nc6c(=O)[nH]c(N)nc6n4[C@@H]4O[C@@H]6COP(=O)(O)O[C@H]6[C@H]4O)cc3)cc21)c1ccc(S(=O)(=O)[O-])cc1C5(C)C (stereo partly shown)
Result: 6.20

Q: Supply measured pEC50 of NCCCCCc1ccc(-c2nc3c(=O)[nH]c(N)nc3n2[C@@H]2O[C@@H]3COP(=O)(O)O[C@H]3[C@H]2O)cc1 in your reply.
Result: 5.15
